Source: paper PMC6471523

Assay read-out Ki; system under study: BACE1 (Homo sapiens).
Sequence (P56817 46-501): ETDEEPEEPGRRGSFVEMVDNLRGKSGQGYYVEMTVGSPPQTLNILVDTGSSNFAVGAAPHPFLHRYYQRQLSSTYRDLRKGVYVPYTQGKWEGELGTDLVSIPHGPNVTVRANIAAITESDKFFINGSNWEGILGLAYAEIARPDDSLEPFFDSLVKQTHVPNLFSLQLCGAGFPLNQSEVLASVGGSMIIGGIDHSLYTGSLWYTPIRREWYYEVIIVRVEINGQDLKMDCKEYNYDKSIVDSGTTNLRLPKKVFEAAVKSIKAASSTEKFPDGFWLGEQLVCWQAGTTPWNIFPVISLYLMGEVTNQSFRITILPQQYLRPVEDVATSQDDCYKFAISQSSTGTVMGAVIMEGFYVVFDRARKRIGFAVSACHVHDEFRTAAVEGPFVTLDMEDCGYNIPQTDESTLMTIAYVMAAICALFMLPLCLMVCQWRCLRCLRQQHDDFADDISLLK
metric.name: Ki (µM)

* O=C1CC(c2ccccc2)Oc2cc(O)cc(O)c21 (stereo not drawn) [Pinocembrin, 5,7-dihydroxyflavanone] | 29.3
* COc1cc(O)c2c(c1)OC(c1ccccc1)CC2=O (stereo not drawn) [Pinostrobin, 5-hydroxy-7methoxyflavanone] | 30.9
* COc1cc(O)cc(O)c1C(=O)/C=C/c1ccccc1 [Cardamonin, 2′,4′-dihydroxy-6′-methoxychalcone] | 5.1
